Ref: patent US20240150377A1

MEASURED_ON: CFTR (Homo sapiens)
ASSAY_PROTOCOL: Membrane potential dye, Enteroid Assay A
Type: cell-based
CONDITIONS: Table 6; chloride transport as % of triple combination control (Enteroid Assay A)
QUANTITY_KIND: Ent. A Max Activity

Before answering, review these 8 worked examples.
Cc1cccc(C)c1-c1cc2nc(n1)NS(=O)(=O)c1cccc(c1)C(=O)N(CCC(C)C)[C@H](CCC1(C(F)(F)F)CC1)CO2 [Compound 851]
+ (+ is <30%)
Cc1ccccc1-c1cc2nc(n1)NS(=O)(=O)c1cccc(c1)C(=O)N(C)[C@H](CC(C)C)[C@H](c1ccc(C(C)(C)C)cn1)O2
+++ (+++ is >60%)
COc1ccccc1CN1C(=O)c2cccc(c2)S(=O)(=O)Nc2nc(cc(-c3c(C)cccc3C)n2)OC[C@H]1CC(C)C
+++ (+++ is >60%)
CCCCCCCCN1C(=O)c2cccc(c2)S(=O)(=O)Nc2nc(cc(-c3c(C)cccc3C)n2)OC[C@H]1CC(C)C
+++ (+++ is >60%)
Cc1cccc(C)c1-c1cc2nc(n1)NS(=O)(=O)c1cccc(c1)C(=O)N(CCCn1cccn1)[C@H](CC(C)C)CO2
+++ (+++ is >60%)
Cc1cccc(C)c1-c1cc2nc(n1)NS(=O)(=O)c1cccc(c1)C(=O)N(Cc1ccc(N3CCN(C)CC3)nc1)[C@H](CC(C)C)CO2
+++ (+++ is >60%)
Cc1cccc(C)c1-c1cc2nc(n1)NS(=O)(=O)c1cccc(c1)C(=O)N(C)CCO2
+ (+ is <30%)
Cc1cccc(C)c1-c1cc2nc(n1)NS(=O)(=O)c1cccc(c1)C(=O)N(CCC(C)(C)C)[C@H](CC(C)C)CO2
+++ (+++ is >60%)

Problem: Which Ent. A Max Activity is reported with CFTR (Homo sapiens) for this entry: Cc1cccc(C)c1-c1cc2nc(n1)NS(=O)(=O)c1cccc(c1)C(=O)N(CC(C)C)[C@H](CC(C)C)CO2 ?
Solution: +++ (+++ is >60%)

Problem: For CFTR (Homo sapiens), provide Ent. A Max Activity of Cc1cccc(C)c1-c1cc2nc(n1)NS(=O)(=O)c1cccc(c1)C(=O)N(C)[C@@H](CC(C)C)[C@H](c1ccc(C(C)(C)C)nc1)O2 please.
Solution: + (+ is <30%)

Problem: Hi! What's the reported Ent. A Max Activity for Cc1cccc(C)c1-c1cc2nc(n1)NS(=O)(=O)c1cccc(c1)C(=O)N(CC1CCOC1)[C@H](CC(C)C)CO2 (stereo partly shown) on CFTR (Homo sapiens)?
Solution: +++ (+++ is >60%)

Problem: Request: Ent. A Max Activity, test system CFTR (Homo sapiens), entry Cc1cccc(C)c1-c1cc2nc(n1)NS(=O)(=O)c1cccc(c1)C(=O)N(Cc1cccnc1)[C@H](CC(C)C)CO2
Solution: +++ (+++ is >60%)

Problem: # get_value(readout= Ent. A Max Activity, system= CFTR (Homo sapiens)) for Cc1cccc(C)c1-c1cc2nc(n1)NS(=O)(=O)c1cccc(c1)C(=O)N(Cc1ccc(=O)[nH]c1)[C@H](CC(C)C)CO2
Solution: +++ (+++ is >60%)

---

Kindly state pEC50 for each of the entries shown.
MEASURED_ON: CFTR (Homo sapiens, UniProt P13569, DEL508-508)
Construct: endogenous in cells; host or cells: primary human bronchial epithelial cells from CF subjects (F508del/MF-HBE), differentiated at air-liquid interface
Sequence (P13569 with tags, fused parts or gaps DEL508-508): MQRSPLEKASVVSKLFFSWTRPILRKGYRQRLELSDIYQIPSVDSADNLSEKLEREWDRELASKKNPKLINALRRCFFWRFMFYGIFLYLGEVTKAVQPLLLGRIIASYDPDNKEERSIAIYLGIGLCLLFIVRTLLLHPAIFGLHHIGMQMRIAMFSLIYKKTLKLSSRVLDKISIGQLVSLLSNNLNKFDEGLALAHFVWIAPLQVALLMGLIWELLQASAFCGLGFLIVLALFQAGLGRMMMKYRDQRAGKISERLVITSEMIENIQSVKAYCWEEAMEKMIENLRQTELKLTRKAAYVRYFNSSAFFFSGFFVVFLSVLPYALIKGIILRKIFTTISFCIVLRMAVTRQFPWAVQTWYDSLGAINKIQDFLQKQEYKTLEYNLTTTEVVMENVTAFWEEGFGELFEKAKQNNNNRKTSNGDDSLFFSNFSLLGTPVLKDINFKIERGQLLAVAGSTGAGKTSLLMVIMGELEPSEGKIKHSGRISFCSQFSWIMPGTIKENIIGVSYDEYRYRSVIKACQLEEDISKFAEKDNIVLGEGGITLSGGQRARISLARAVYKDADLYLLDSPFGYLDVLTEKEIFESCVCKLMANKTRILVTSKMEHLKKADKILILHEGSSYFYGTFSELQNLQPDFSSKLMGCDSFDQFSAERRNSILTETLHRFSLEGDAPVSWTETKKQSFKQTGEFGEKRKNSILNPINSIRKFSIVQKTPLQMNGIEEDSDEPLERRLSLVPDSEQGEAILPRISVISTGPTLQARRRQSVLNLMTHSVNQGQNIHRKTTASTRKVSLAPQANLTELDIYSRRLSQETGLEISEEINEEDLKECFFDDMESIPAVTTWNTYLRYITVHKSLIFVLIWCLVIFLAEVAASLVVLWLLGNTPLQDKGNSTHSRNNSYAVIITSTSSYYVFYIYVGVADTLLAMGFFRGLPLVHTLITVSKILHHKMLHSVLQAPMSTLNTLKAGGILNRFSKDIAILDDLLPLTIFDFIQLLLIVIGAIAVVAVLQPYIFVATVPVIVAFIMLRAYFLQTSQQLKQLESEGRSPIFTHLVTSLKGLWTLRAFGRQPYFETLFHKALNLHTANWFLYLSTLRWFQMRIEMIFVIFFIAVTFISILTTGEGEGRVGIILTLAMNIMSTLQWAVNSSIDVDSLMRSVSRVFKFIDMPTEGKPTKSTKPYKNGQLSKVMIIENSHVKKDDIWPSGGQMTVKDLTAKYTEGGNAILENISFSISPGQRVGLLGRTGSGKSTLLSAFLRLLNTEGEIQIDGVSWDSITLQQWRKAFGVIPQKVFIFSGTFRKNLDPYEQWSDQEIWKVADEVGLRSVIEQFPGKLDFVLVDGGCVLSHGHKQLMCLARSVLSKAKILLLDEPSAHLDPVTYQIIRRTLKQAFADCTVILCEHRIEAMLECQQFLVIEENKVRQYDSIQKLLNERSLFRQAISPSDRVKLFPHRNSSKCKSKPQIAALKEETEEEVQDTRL
ASSAY_PROTOCOL: HBE assay: Ussing chamber assay of CFTR-mediated short-circuit currents
Assay type: cell-based
CONDITIONS: Table 12; read-out: HBE EC50
pEC50: −log10 of the molar value.

Problem: Form field: reported pEC50 of COC[C@@H]1CCCN1c1cccc(CN2C(=O)c3cccc(c3)S(=O)(=O)Nc3nc(cc(-c4c(C)cccc4C)n3)OC[C@H]2CC(C)(C)C)n1 [Compound 275]
Solution: > 6.00

Problem: What value of measured pEC50 is listed for Cc1cccc(C)c1-c1cc2nc(n1)NS(=O)(=O)c1cccc(c1)C(=O)N(CC1(C(=O)O)CC1)[C@H](CC(C)(C)C)CO2 [Compound 450] ?
Solution: > 6.00

Problem: Field request: pEC50 | item: Cc1cccc(C)c1-c1cc2cc(n1)NS(=O)(=O)c1cccc(c1)C(=O)N(Cc1cccc(N3CCC[C@H]3C)n1)[C@H](CC(C)(C)C)CO2 [Compound 526]
Solution: > 6.00

---

MEASURED_ON: CFTR (Homo sapiens, UniProt P13569, DEL508-508)
Construct: endogenous in cells; host or cells: primary human bronchial epithelial cells from CF subjects (F508del/MF-HBE), differentiated at air-liquid interface
ASSAY_PROTOCOL: HBE2 assay: Ussing chamber assay of CFTR-mediated short-circuit currents
Format: cell-based
CONDITIONS: F508del/MF-HBE cells; with 44 nM potentiator; 18-24 hours; 20% human serum; read-out: HBE2 Max activity (%)
Procedure: Ussing Chamber Assay of CFTR-Mediated Short-Circuit Currents After four days the apical media was removed, and the cells were grown at an air liquid interface for >14 days prior to use. To isolate the CFTR-mediated short-circuit (ISC) current, F508del/MF-HBE grown on Costar® Snapwell™ cell culture inserts were mounted in an Ussing chamber and the transepithelial ISC was measured under voltage-clamp recording conditions (Vhold=0 mV) at 37° C. […]
QUANTITY_KIND: Emax

Problem: Any idea what Emax was measured for Cc1cccc(C)c1-c1cc2nc(n1)NS(=O)(=O)c1cccc(c1)C(=O)N(Cc1cncc(N(C)CC(C)C)n1)[C@H](CC1(C)CC1)CO2 ?
Solution: > 60%

Problem: Recorded Emax for Cc1cccc(C)c1-c1cc2nc(n1)NS(=O)(=O)c1cccc(c1)C(=O)N(Cc1cncc(N(C)C3CCC3)n1)[C@H](C1CCCCC1)CO2 , please?
Solution: > 60%

Problem: // Emax lookup, key: Cc1cccc(C)c1-c1cc2nc(n1)NS(=O)(=O)c1cccc(c1)C(=O)N(Cc1cncc(N(C)C3CCC3)n1)[C@H](CC1(C)CCC1)CO2
Solution: > 60%

---

MEASURED_ON: CFTR (Homo sapiens, UniProt P13569, DEL508-508)
Construct: endogenous in cells; host or cells: primary human bronchial epithelial cells from CF subjects (F508del/MF-HBE), differentiated at air-liquid interface
ASSAY_PROTOCOL: HBE assay: Ussing chamber assay of CFTR-mediated short-circuit currents
Format: cell-based
CONDITIONS: Table 11; at 10 μM; read-out: HBE Activity at 10 μM (%)
Procedure: 1. Ussing Chamber Assay of CFTR-Mediated Short-Circuit Currents […] To isolate the CFTR-mediated short-circuit (ISC) current, F508del/MF-HBE grown on Costar® Snapwell™ cell culture inserts were mounted in an Ussing chamber and the transepithelial ISC was measured under voltage-clamp recording conditions (Vhold=0 mV) at 37° C. […] The CFTR-mediated ISC (μA/cm^2) for each condition was determined from the peak forskolin response to the steady-state current following inhibition. […]
For each record, write down the corresponding activation at 10 µM.

Problem: I have this molecule here, Cc1cccc(C(C)C)c1-c1cc2nc(n1)NS(=O)(=O)c1cccc(c1)C(=O)N(Cc1ccc(N3CCOCC3)cn1)[C@H](CC(C)(C)C)CO2 [Compound 821] , and I need its recorded activation at 10 µM.
Solution: > 60%

Problem: Name the reported activation at 10 µM value associated with the molecule Cc1cccc(C)c1-c1cc2nc(n1)NS(=O)(=O)c1cccc(c1)C(=O)N(CC1CCOC(C)(C)C1)[C@H](CC(C)(C)C)CO2 (single isomer, unassigned) [Compound 28]
Solution: > 60%

Problem: Can you share its activation at 10 µM? I mean this molecule: Cc1cccc(C)c1-c1cc2nc(n1)NS(=O)(=O)c1cccc(c1)C(=O)N(CC1OCCCC1(C)C)[C@H](CC(C)(C)C)CO2 (single isomer, unassigned) [Compound 35]
Solution: > 60%

Problem: Look up activation at 10 µM for this molecule: Cc1cccc(C)c1-c1cc2nc(n1)NS(=O)(=O)c1cccc(c1)C(=O)N(Cc1ccc(N3CCOCC3)cn1)C(CC(C)(C)C)CO2 (stereo not drawn) [Compound 332]
Solution: < 30%

Problem: Quick one: activation at 10 µM of Cc1cccc(C)c1-c1cc2nc(n1)NS(=O)(=O)c1cccc(c1)C(=O)N(Cc1cc3c(cn1)OCCO3)[C@H](CC(C)(C)C)CO2 [Compound 758] ?
Solution: > 60%

Problem: Please look up its activation at 10 µM: Cc1cccc(C)c1-c1cc2nc(n1)NS(=O)(=O)c1cccc(c1)C(=O)N(Cc1ccc(OCC(C)C)cn1)[C@H](CC(C)(C)C)CO2 [Compound 747]
Solution: > 60%

---

MEASURED_ON: UniProtKB P13569
ASSAY_PROTOCOL: Membrane potential dye, Enteroid Assay A
Type: cell-based
CONDITIONS: Table 7; human enteroid cells, 18-24 hours; acute 10 μM forskolin and 300 nM ivacaftor; read-out: Ent. A EC50
pEC50: −log10 of the molar value.
I'd appreciate it if you could supply pEC50 values for the items below.

Problem: Form entry - test system: UniProtKB P13569; read-out: pEC50; compound: COc1ccc(CN2C(=O)c3cccc(c3)S(=O)(=O)Nc3nc(cc(-c4c(C)cccc4C)n3)OC[C@H]2CC2(C(F)(F)F)CC2)cc1 [Compound 678]
Solution: > 6.00

Problem: Record lookup: for UniProtKB P13569, what pEC50 belongs to Cc1cccc(C)c1-c1cc2nc(n1)NS(=O)(=O)c1cccc(c1)C(=O)N(C)CC(c1cccc(C(C)(C)C)c1)O2 (racemic) [Compound 16] ?
Solution: > 6.00

Problem: Quick check: pEC50 on UniProtKB P13569, item Cc1cccc(C)c1-c1cc2nc(n1)NS(=O)(=O)c1cccc(c1)C(=O)N(CC1CC3(CCN(C)CC3)C1)[C@H](CC(C)C)CO2 [Compound 89] ?
Solution: > 6.00

Problem: Notebook entry, UniProtKB P13569 assay: pEC50 of Cc1cccc(C)c1-c1cc2nc(n1)NS(=O)(=O)c1cccc(c1)CN(C(=O)CC1CCCCC1)[C@H](CC(C)C)CO2 [Compound 1050] = ?
Solution: 5.52 to 6.00

Problem: Could you share what pEC50 was measured for Cc1cccc(C)c1-c1cc2nc(n1)NS(=O)(=O)c1cccc(c1)C(=O)N(CCC(C)(C)C)[C@H](CC1(C(F)(F)F)CC1)CO2 [Compound 686] , tested on UniProtKB P13569?
Solution: > 6.00

Problem: Query the reported pEC50 for UniProtKB P13569; item: CC(=O)N1CCC(CCN2C(=O)c3cccc(c3)S(=O)(=O)Nc3nc(cc(-c4c(C)cccc4C)n3)OC[C@H]2CC(C)C)CC1 [Compound 1107]
Solution: > 6.00
